B1: glmS ribozyme (parent)
chain: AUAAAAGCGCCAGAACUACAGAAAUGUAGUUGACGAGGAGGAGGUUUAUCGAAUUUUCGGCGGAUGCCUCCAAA

# Variants of: B1
# experimental.protocol: self-cleavage kobs at 40 uM GlcN6P; higher = faster cleavage; RNA array
# run.conditions: with glucosamine-6-phosphate
Variants at the floor of the assay were thinned out.
readout.label: self-cleavage kobs at 40 uM GlcN6P

residue.sequence	result
AUAAAAGCGCCAGUACUACAGAAAUGUAGUUGACGAGGAGUAGUUUUAUCGAAUUUUCGGCGGAUGCCUCCAAA [A14U G41U G44U]	< 1e-05 s⁻¹
AUAAAAGCGCCAGAACUACAGAAAUGUAGUUGACGAGGAAGAGGUUUAUCGAAUUUUCGGCGGAUGACUCCAAA [G40A C67A]	< 1e-05 s⁻¹
AUAAAAGCGCCAGUACUACAGAAAUGUAGUUGACGAGGAGGAGGUUUAUCGAAUUUUCGGCGGAUGCCUUCAAA [A14U C70U]	0.000285 s⁻¹
AUAAAAGCGCCAUAACUACAGAAAUGUAUUUGACGAGGAGGAGGUUUAUCGGAUUUUCGGCGGAUGGCUCCAAA [G13U G29U A52G C67G]	6.42e-05 s⁻¹
AUAAAACCGCCAGAACUACAGAAAUGUAGUUGACGACGAGGAGGUUUAUCGAAUUUUCGGCGGAUGCCUCCAAA [G7C G37C]	< 1e-05 s⁻¹

Suppose we examine the variant AUAAAAGCGCCAGGACUACAGAAAUGUAGUUGAAGAGGAGGAGUUUUAUCGAAUUUUCGGCGGAUGCUUCCAAA [A14G C34A G44U C68U] ; what self-cleavage kobs at 40 uM GlcN6P value has been reported?
< 1e-05 s⁻¹

Which measured self-cleavage kobs at 40 uM GlcN6P value corresponds to AUAAAAGCGCCAGAACUACAGAAAUGUAGUUGACGAGGAGGAGGUCUAUCGAAUUAUCGGCGGAUGCCUCCAAA [U46C U56A] ?
2.85e-05 s⁻¹

Quick check: self-cleavage kobs at 40 uM GlcN6P of AUAAAACCGCCAGAACUACAGAAAUGUAGUUGACGAGGAGGAGGUUUAUCGAAUUUUCGGCGGAUGUCUCCAAA [G7C C67U] ?
< 1e-05 s⁻¹

If you can, please state the reported self-cleavage kobs at 40 uM GlcN6P value of AUAAAAGCGCCAGAACUACAGAAAUGUAGUUGACGAGGAGGAGGUUUAUCGAAUUUUCUGCGUAUGACUCCAAA [G59U G63U C67A] .
< 1e-05 s⁻¹
